In this section we review reported yeast fitness values for a set of variants.
B1: tRNA (parent)
chain: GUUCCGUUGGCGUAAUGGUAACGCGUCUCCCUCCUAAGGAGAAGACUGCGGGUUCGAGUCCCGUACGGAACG

# Variants of: B1
# protocol-summary: yeast fitness relative to wild type (ratio to wild type); higher = fitter; tRNA-Arg(CCU), competitive growth, 37 C, YPD
Variants at the floor of the assay were thinned out.
Give your answer as a number; write no unit.

Would you please look over these solved cases?
1. C11U G25C C29G A43G C49G :: 0.546
2. G9A G17C A45U A65C :: 0.583
3. U7G C27A :: 0.744

Using the record for U16G C31A C60A G67A , report its yeast fitness. 0.678

Fill in: yeast fitness of G12A A42U is ___ 0.856

Look up yeast fitness for this variant: G18C A45U 0.549

For U7C C60U , what is its reported yeast fitness? 0.785

I have this variant here, A15U A42U C46G C61G , and I need its recorded yeast fitness. 0.652

Sample C24G G25C C30G U32C A70C — what was its yeast fitness? 0.533

I would be grateful if you could share the reported yeast fitness for C33U A43C . 0.656

Need yeast fitness of U53A C60G , thanks. 0.617

What yeast fitness value was documented for this variant, C5U C49G A69U ? 0.629

Requested read-out: yeast fitness. Entry: G9C A43U 0.694

Fill blank: measured yeast fitness of the variant G23A G58A is ____. 0.715

Consider the variant C11U A14G and give its measured yeast fitness. 0.865

Report yeast fitness for U13C G63C please. 0.742

Endpoint output: yeast fitness of U2A C49U . Value? 0.981
